Test system: A549 cells (KRAS G12S)
Experiment: 3D Cell viability assay in A549 cells (Biological Example 6)
Format: cell-based
Details: A549 (KRAS G12S) spheroids, 72 hours
pIC50: −log10 of the molar value.

[
  {
    "Structure Notation": "CN(c1nc(OC[C@@]23CCCN2C[C@H](F)C3)nc2c(F)c(-c3ccc(F)c4sc(N)c(C#N)c34)c(C(F)(F)F)cc12)[C@H]1C[C@@H](O)C1",
    "pIC50": "6.00 to 7.00"
  }
]

----------
# IC50 annotations
Biological target: Avi-KRAS WT (1-169) GppNHp/RAF1 RBD-3xFLAG (52-151) (Homo sapiens)
Construct: Avi-KRAS WT (1-169)
Sequence (P01116 1-169 isoform P01116-2): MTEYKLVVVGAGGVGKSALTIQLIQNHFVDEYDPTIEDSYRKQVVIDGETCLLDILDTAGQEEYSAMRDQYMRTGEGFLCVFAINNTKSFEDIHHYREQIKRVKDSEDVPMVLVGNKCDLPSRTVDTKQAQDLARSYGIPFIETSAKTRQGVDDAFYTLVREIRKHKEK
Assay: Raf1-KRAS WT-GppNHP disruption HTRF assay (Biological Example 1)
Assay type: binding
Conditions: KRAS WT, GppNHp-loaded; class symbols

[
  {
    "Compound": "CCN(c1nc(OC[C@@]23CCCN2C[C@H](F)C3)nc2c(F)c(-c3ccc(F)c4sc(N)c(C#N)c34)c(C(F)(F)F)cc12)[C@H]1C[C@@H](C)N(C(=O)N2CC(F)C2)C1 (atropisomer, axis not shown)",
    "IC50": "0.1 to 1 µM"
  },
  {
    "Compound": "CCN(c1nc(OC[C@@]23CCCN2C[C@H](F)C3)nc2c(F)c(-c3ccc(F)c4sc(N)c(C#N)c34)c(C(F)(F)F)cc12)[C@H]1CCN(C(=O)N2CC(C#N)C2)C1 (atropisomer, axis not shown)",
    "IC50": "< 0.1 µM"
  },
  {
    "Compound": "CCN(c1nc(OC[C@@]23CCCN2C[C@H](F)C3)nc2c(F)c(-c3ccc(F)c4sc(N)c(C#N)c34)c(C(F)(F)F)cc12)[C@@H]1CC(=O)N(C2CC2)C1 (atropisomer, axis not shown)",
    "IC50": "0.1 to 1 µM"
  },
  {
    "Compound": "CCC(=O)N1CC[C@H]2[C@@H]1CN2c1nc(OC[C@@]23CCCN2C[C@H](F)C3)nc2c(F)c(-c3ccc(F)c4sc(N)c(C#N)c34)c(C(F)(F)F)cc12 (atropisomer, axis not shown)",
    "IC50": "1 to 10 µM"
  }
]

----------
Molecular target: Avi-KRAS G12R (1-169) GppNHp/RAF1 RBD-3xFLAG (52-151) (Homo sapiens, UniProt P01116, G12R)
Construct: Avi-KRAS G12R (1-169)
Sequence (P01116 1-169 isoform P01116-2 G12R): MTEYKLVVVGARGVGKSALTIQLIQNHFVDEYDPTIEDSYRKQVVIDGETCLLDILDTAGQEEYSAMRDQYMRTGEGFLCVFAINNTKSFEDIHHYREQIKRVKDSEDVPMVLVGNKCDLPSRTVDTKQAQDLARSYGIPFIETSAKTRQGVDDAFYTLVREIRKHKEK
Test: Raf1-KRAS G12R-GppNHP disruption HTRF assay (Biological Example 1)
Assay type: binding
Conditions: KRAS G12R-GppNHp/RAF1 RBD HTRF
pIC50: −log10 of the molar value.
# pIC50 annotations

[
  {
    "Compound": "CCN(c1nc(OC[C@@]23CCCN2C[C@H](F)C3)nc2c(F)c(-c3ccc(F)c4sc(N)c(C#N)c34)c(C(F)(F)F)cc12)[C@@H]1CCN(C(=O)C2CC2)[C@H]1C",
    "Measurement Target": "Avi-KRAS G12R (1-169) GppNHp/RAF1 RBD-3xFLAG (52-151) (Homo sapiens, UniProt P01116, G12R)",
    "pIC50": "6.00 to 7.00"
  },
  {
    "Compound": "N#Cc1c(N)sc2c(F)ccc(-c3c(C(F)(F)F)cc4c(N5CCCC[C@@H](O)C5)nc(OC[C@@]56CCCN5C[C@H](F)C6)nc4c3F)c12",
    "Measurement Target": "Avi-KRAS G12R (1-169) GppNHp/RAF1 RBD-3xFLAG (52-151) (Homo sapiens, UniProt P01116, G12R)",
    "pIC50": "> 7.00"
  },
  {
    "Compound": "N#Cc1c(N)sc2c(F)ccc(-c3c(C(F)(F)F)cc4c(N5C[C@@H]6CC[C@H]5CN6C(=O)C5CC5)nc(OC[C@@]56CCCN5C[C@H](F)C6)nc4c3F)c12",
    "Measurement Target": "Avi-KRAS G12R (1-169) GppNHp/RAF1 RBD-3xFLAG (52-151) (Homo sapiens, UniProt P01116, G12R)",
    "pIC50": "6.00 to 7.00"
  },
  {
    "Compound": "CCN(c1nc(OC[C@@]23CCCN2C[C@H](F)C3)nc2c(F)c(-c3ccc(F)c4sc(N)c(C#N)c34)c(C(F)(F)F)cc12)[C@@H]1CC(=O)N(C)C1",
    "Measurement Target": "Avi-KRAS G12R (1-169) GppNHp/RAF1 RBD-3xFLAG (52-151) (Homo sapiens, UniProt P01116, G12R)",
    "pIC50": "6.00 to 7.00"
  },
  {
    "Compound": "CCN(c1nc(OC[C@@]23CCCN2C[C@H](F)C3)nc2c(F)c(-c3ccc(F)c4sc(N)c(C#N)c34)c(C(F)(F)F)cc12)[C@@H]1CCN(C(=O)C2CC2)[C@@H]1C [Compound 406]",
    "Measurement Target": "Avi-KRAS G12R (1-169) GppNHp/RAF1 RBD-3xFLAG (52-151) (Homo sapiens, UniProt P01116, G12R)",
    "pIC50": "6.00 to 7.00"
  },
  {
    "Compound": "CCN(c1nc(OC[C@@]23CCCN2C[C@H](F)C3)nc2c(F)c(-c3ccc(F)c4sc(N)c(C#N)c34)c(C(F)(F)F)cc12)[C@H]1CCS(=O)(=O)C1 (atropisomer, axis not shown) [Compound 491]",
    "Measurement Target": "Avi-KRAS G12R (1-169) GppNHp/RAF1 RBD-3xFLAG (52-151) (Homo sapiens, UniProt P01116, G12R)",
    "pIC50": "< 5.00"
  },
  {
    "Compound": "N#Cc1c(N)sc2c(F)ccc(-c3c(C(F)(F)F)cc4c(N5CCn6nc(C(=O)N7CCC(O)C7)cc6C5)nc(OCC56CCCN5CC(F)C6)nc4c3F)c12 (stereo not drawn)",
    "Measurement Target": "Avi-KRAS G12R (1-169) GppNHp/RAF1 RBD-3xFLAG (52-151) (Homo sapiens, UniProt P01116, G12R)",
    "pIC50": "6.00 to 7.00"
  },
  {
    "Compound": "N#Cc1cnn2c1CN(c1nc(OC[C@@]34CCCN3C[C@H](F)C4)nc3c(F)c(-c4ccc(F)c5sc(N)c(C#N)c45)c(C(F)(F)F)cc13)CC2",
    "Measurement Target": "Avi-KRAS G12R (1-169) GppNHp/RAF1 RBD-3xFLAG (52-151) (Homo sapiens, UniProt P01116, G12R)",
    "pIC50": "6.00 to 7.00"
  },
  {
    "Compound": "CC(C)C(=O)N1CC[C@@H]2[C@H]1CN2c1nc(OC[C@@]23CCCN2C[C@H](F)C3)nc2c(F)c(-c3ccc(F)c4sc(N)c(C#N)c34)c(C(F)(F)F)cc12",
    "Measurement Target": "Avi-KRAS G12R (1-169) GppNHp/RAF1 RBD-3xFLAG (52-151) (Homo sapiens, UniProt P01116, G12R)",
    "pIC50": "5.00 to 6.00"
  },
  {
    "Compound": "C[C@@H]1[C@H](N(C)c2nc(OC[C@@]34CCCN3C[C@H](F)C4)nc3c(F)c(-c4ccc(F)c5sc(N)c(C#N)c45)c(C(F)(F)F)cc23)CCN1C(=O)N(C)C",
    "Measurement Target": "Avi-KRAS G12R (1-169) GppNHp/RAF1 RBD-3xFLAG (52-151) (Homo sapiens, UniProt P01116, G12R)",
    "pIC50": "6.00 to 7.00"
  },
  {
    "Compound": "C[C@H]1CS(=O)(=O)CCN1c1nc(OC[C@@]23CCCN2C[C@H](F)C3)nc2c(F)c(-c3ccc(F)c4sc(N)c(C#N)c34)c(C(F)(F)F)cc12",
    "Measurement Target": "Avi-KRAS G12R (1-169) GppNHp/RAF1 RBD-3xFLAG (52-151) (Homo sapiens, UniProt P01116, G12R)",
    "pIC50": "6.00 to 7.00"
  },
  {
    "Compound": "CN(c1nc(OC[C@@]23CCCN2C[C@H](F)C3)nc2c(F)c(-c3ccc(F)c4sc(N)c(C#N)c34)c(C(F)(F)F)cc12)[C@H]1CCCOC1",
    "Measurement Target": "Avi-KRAS G12R (1-169) GppNHp/RAF1 RBD-3xFLAG (52-151) (Homo sapiens, UniProt P01116, G12R)",
    "pIC50": "6.00 to 7.00"
  },
  {
    "Compound": "CNC(=O)N1CC[C@@H](N(C)c2nc(OC[C@@]34CCCN3C[C@H](F)C4)nc3c(F)c(-c4ccc(F)c5sc(N)c(C#N)c45)c(C(F)(F)F)cc23)[C@H]1C",
    "Measurement Target": "Avi-KRAS G12R (1-169) GppNHp/RAF1 RBD-3xFLAG (52-151) (Homo sapiens, UniProt P01116, G12R)",
    "pIC50": "6.00 to 7.00"
  },
  {
    "Compound": "C[C@H]1CC[C@@H](O)CN1c1nc(OC[C@@]23CCCN2C[C@H](F)C3)nc2c(F)c(-c3ccc(F)c4sc(N)c(C#N)c34)c(C(F)(F)F)cc12",
    "Measurement Target": "Avi-KRAS G12R (1-169) GppNHp/RAF1 RBD-3xFLAG (52-151) (Homo sapiens, UniProt P01116, G12R)",
    "pIC50": "6.00 to 7.00"
  },
  {
    "Compound": "N#Cc1c(N)sc2c(F)ccc(-c3c(C(F)(F)F)cc4c(N5C6CCC5CS(=O)(=O)C6)nc(OC[C@@]56CCCN5C[C@H](F)C6)nc4c3F)c12",
    "Measurement Target": "Avi-KRAS G12R (1-169) GppNHp/RAF1 RBD-3xFLAG (52-151) (Homo sapiens, UniProt P01116, G12R)",
    "pIC50": "5.00 to 6.00"
  },
  {
    "Compound": "CC(=O)N1C[C@H]2OCCN(c3nc(OC[C@@]45CCCN4C[C@H](F)C5)nc4c(F)c(-c5ccc(F)c6sc(N)c(C#N)c56)c(C(F)(F)F)cc34)[C@H]2C1",
    "Measurement Target": "Avi-KRAS G12R (1-169) GppNHp/RAF1 RBD-3xFLAG (52-151) (Homo sapiens, UniProt P01116, G12R)",
    "pIC50": "5.00 to 6.00"
  },
  {
    "Compound": "C[C@@H]1[C@H](N(C)c2nc(OC[C@@]34CCCN3C[C@H](F)C4)nc3c(F)c(-c4ccc(F)c5sc(N)c(C#N)c45)c(C(F)(F)F)cc23)CCN1C(=O)CF",
    "Measurement Target": "Avi-KRAS G12R (1-169) GppNHp/RAF1 RBD-3xFLAG (52-151) (Homo sapiens, UniProt P01116, G12R)",
    "pIC50": "6.00 to 7.00"
  },
  {
    "Compound": "CCC(=O)N1C[C@@H](N(CC)c2nc(OC[C@@]34CCCN3C[C@H](F)C4)nc3c(F)c(-c4ccc(F)c5sc(N)c(C#N)c45)c(C(F)(F)F)cc23)C[C@@H]1C",
    "Measurement Target": "Avi-KRAS G12R (1-169) GppNHp/RAF1 RBD-3xFLAG (52-151) (Homo sapiens, UniProt P01116, G12R)",
    "pIC50": "> 7.00"
  },
  {
    "Compound": "C[C@@H]1[C@H](N(C)c2nc(OC[C@@]34CCCN3C[C@H](F)C4)nc3c(F)c(-c4ccc(F)c5sc(N)c(C#N)c45)c(C(F)(F)F)cc23)CC(=O)N1C",
    "Measurement Target": "Avi-KRAS G12R (1-169) GppNHp/RAF1 RBD-3xFLAG (52-151) (Homo sapiens, UniProt P01116, G12R)",
    "pIC50": "6.00 to 7.00"
  },
  {
    "Compound": "CN(c1nc(OC[C@@]23CCCN2C[C@H](F)C3)nc2c(F)c(-c3ccc(F)c4sc(N)c(C#N)c34)c(C(F)(F)F)cc12)[C@@H]1CC[C@H](O)C1",
    "Measurement Target": "Avi-KRAS G12R (1-169) GppNHp/RAF1 RBD-3xFLAG (52-151) (Homo sapiens, UniProt P01116, G12R)",
    "pIC50": "5.00 to 6.00"
  },
  {
    "Compound": "CN(c1nc(OC[C@@]23CCCN2C[C@H](F)C3)nc2c(F)c(-c3ccc(F)c4sc(N)c(C#N)c34)c(C(F)(F)F)cc12)[C@H]1CC[C@@H](O)C1",
    "Measurement Target": "Avi-KRAS G12R (1-169) GppNHp/RAF1 RBD-3xFLAG (52-151) (Homo sapiens, UniProt P01116, G12R)",
    "pIC50": "6.00 to 7.00"
  }
]
